- ASSAY_TARGET: T1, TNF-R2 (a protein having the amino acid sequence, Accession No. M55994 registered at GENBANK) (UniProt P20333 23-257, limits assumed)
- T1 construct: also called TNF receptor with 75 kilo daltons
- T1 sequence (looked up): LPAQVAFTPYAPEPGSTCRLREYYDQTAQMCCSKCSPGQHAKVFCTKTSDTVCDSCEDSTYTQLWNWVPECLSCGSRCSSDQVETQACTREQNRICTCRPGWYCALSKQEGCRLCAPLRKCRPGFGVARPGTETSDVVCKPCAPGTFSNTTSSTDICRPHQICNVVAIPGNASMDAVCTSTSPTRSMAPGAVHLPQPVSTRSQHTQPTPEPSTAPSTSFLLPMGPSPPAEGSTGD
- TEST_NAME: SPR (BIACORE 2000), receptor on sensor tip; grade 1 = 0.001 to 0.1 time that of recombinant TNF-α
In this section we review reported binding affinity relative to recombinant TNF-α values for a set of binders.

Use the examples below as a reference point.
>  <BINDER>
TNF mutant protein of clone No. 18 (ligand, Mutant of lysine-replaced TNF, made in E. coli) VRSSSRTPSDMPVAHVVANPQAEGQLQWLNRRANALLANGVELRDNQLVVPSEGLYLIYSQVLFSGQGCPSTHVLLTHTISRISPLYPKPVNLLSAIRSPCQRETPEGAEANPWYEPIYLGGVFQLEPGDRLSAEINRPDYLDFAESGQVYFGIIAL

>  <MEASUREMENT>
0.001 to 0.1 fold

$$$$
>  <BINDER>
TNF mutant protein of clone No. 24 (ligand, Mutant of lysine-replaced TNF, made in E. coli) VRSSSRTPSDMPVAHVVANPQAEGQLQWLNRRANALLANGVELRDNQLVVPSEGLYLIYSQVLFSGQGCPSTHVLLTHTISRITHKYPQPVNLLSAIRSPCQRETPEGAEANPWYEPIYLGGVFQLEPGDRLSAEINRPDYLDFAESGQVYFGIIAL

>  <MEASUREMENT>
0.001 to 0.1 fold

$$$$

Moving on to the next binder.
Ask: Please look up its binding affinity relative to recombinant TNF-α: TNF mutant protein of clone No. 9 (ligand, Mutant of lysine-replaced TNF, made in E. coli) VRSSSRTPSDMPVAHVVANPQAEGQLQWSNPMANALLANGVELRDNQLVVPSEGLYLIYSQVLFSGQGCPSTHVLLTHTISRIAVSYQTPVNLLSAIRSPCQRETPEGAEANPWYEPIYLGGVFQLEPGDRLSAEINRPDYLDFANPGQVYFGIIAL
Result: 0.001 to 0.1 fold
